Entry source: paper PMC10514136

Listing: Weight of selected substances
EXPERIMENT NOTES: Bodyweight-normalized spleen weight and body weight
Type: in vivo, mouse
EXPERIMENTAL SETUP: mouse, in vivo, iv, 9.2 mg/kg

9b2KC-218 (antisense ACAUGGUUAGAUCAAGCACAA; all phosphorodiamidate morpholino (PMO), T or U not given here; Pip9b2KC peptide conjugated); 31,28 ± 4,11 g

Incoming: Reported Weight, substance 9b2-218 (antisense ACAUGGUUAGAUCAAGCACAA; all phosphorodiamidate morpholino (PMO), T or U not given here; Pip9b2 peptide conjugated) : ____
Outgoing: 30,76 ± 2,745 g

Incoming: Reported Weight, substance 9b2KC-23b (antisense GGUAAUCCCUGGCAAUGUGAU; all phosphorodiamidate morpholino (PMO), T or U not given here; Pip9b2KC peptide conjugated) : ____
Outgoing: 32,22 ± 5,551 g

====

Tested on: HSALR mice
EXPERIMENT NOTES: White blood cell differential count
Type: in vivo, mouse
EXPERIMENTAL SETUP: mouse, in vivo, iv, 9.2 mg/kg
Listing: Monocytes of selected substances

6aKC-218 (antisense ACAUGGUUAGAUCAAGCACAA; all phosphorodiamidate morpholino (PMO), T or U not given here; Pip6aKC peptide conjugated); 21,40 ± 7,127%
6aKC-23b (antisense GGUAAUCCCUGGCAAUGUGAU; all phosphorodiamidate morpholino (PMO), T or U not given here; Pip6aKC peptide conjugated); 17,60 ± 7,537%

Incoming: Reported Monocytes, substance 9b2-218 (antisense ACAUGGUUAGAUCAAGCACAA; all phosphorodiamidate morpholino (PMO), T or U not given here; Pip9b2 peptide conjugated) : ____
Outgoing: 9,60 ± 3,209%

Incoming: Reported Monocytes, substance 9b2-23b (antisense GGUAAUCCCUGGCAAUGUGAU; all phosphorodiamidate morpholino (PMO), T or U not given here; Pip9b2 peptide conjugated) : ____
Outgoing: 6,20 ± 2,683%

Incoming: Reported Monocytes, substance 9b2KC-23b (antisense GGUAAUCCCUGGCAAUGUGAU; all phosphorodiamidate morpholino (PMO), T or U not given here; Pip9b2KC peptide conjugated) : ____
Outgoing: 5,75 ± 2,363%

Incoming: Reported Monocytes, substance 9b2KC-218 (antisense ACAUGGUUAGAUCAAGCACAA; all phosphorodiamidate morpholino (PMO), T or U not given here; Pip9b2KC peptide conjugated) : ____
Outgoing: 6,40 ± 2,074%

====

Listing: Mbnl1 Quads, WB assay of selected substances
Test system: Mbnl1 protein
EXPERIMENT NOTES: Western blot of Mbnl1 in mouse muscle
Type: in vivo
EXPERIMENTAL SETUP: HSALR mice, quadriceps, protein; same value given for every mouse of a treatment group
Protocol: A 96-well plate QDB assay was used[87] to determine MBNL1 protein levels in all replicates and concentrations of each ON tested. […] For the quantification of in vitro samples, the QDB was performed exactly as described in Moreno et al.[87] […] For Mbnl1 quantification in mouse muscle tissues, we implemented the following modifications: each sample was loaded in quadruplicate on three different plates. […]
Answer field: number only, no words.

9b2-23b (antisense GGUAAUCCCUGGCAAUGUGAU; all phosphorodiamidate morpholino (PMO), T or U not given here; Pip9b2 peptide conjugated); 1.46
9b2-218 (antisense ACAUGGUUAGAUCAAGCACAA; all phosphorodiamidate morpholino (PMO), T or U not given here; Pip9b2 peptide conjugated); 1.58
9b2KC-218 (antisense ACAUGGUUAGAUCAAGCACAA; all phosphorodiamidate morpholino (PMO), T or U not given here; Pip9b2KC peptide conjugated); 1.44
6aKC-218 (antisense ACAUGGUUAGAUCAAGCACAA; all phosphorodiamidate morpholino (PMO), T or U not given here; Pip6aKC peptide conjugated); 1.02

Incoming: Reported Mbnl1 Quads, WB assay, substance TCTTACCTCAGTTACAATTTA-Pip9b2 [Scramble, reference compound] : ____
Outgoing: 1.00

====

Listing: Lipase of selected substances
Test system: HSALR mice
EXPERIMENT NOTES: Serum biochemistry profile
Format: in vivo, mouse
EXPERIMENTAL SETUP: mouse, in vivo, iv, 9.2 mg/kg

9b2KC-218 (antisense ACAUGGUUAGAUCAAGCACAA; all phosphorodiamidate morpholino (PMO), T or U not given here; Pip9b2KC peptide conjugated); 134,4 ± 227,401 U/L
9b2-23b (antisense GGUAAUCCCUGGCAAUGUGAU; all phosphorodiamidate morpholino (PMO), T or U not given here; Pip9b2 peptide conjugated); 36,60 ± 8,264 U/L
9b2-218 (antisense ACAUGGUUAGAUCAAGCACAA; all phosphorodiamidate morpholino (PMO), T or U not given here; Pip9b2 peptide conjugated); 63,8 ± 75,793 U/L

Incoming: Reported Lipase, substance 9b2KC-23b (antisense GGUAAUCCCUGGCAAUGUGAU; all phosphorodiamidate morpholino (PMO), T or U not given here; Pip9b2KC peptide conjugated) : ____
Outgoing: 30,6 ± 6,730 U/L

====

Listing: Weight of selected substances
EXPERIMENT NOTES: Bodyweight-normalized spleen weight and body weight
Assay type: in vivo, mouse
EXPERIMENTAL SETUP: mouse, in vivo, iv, 9.2 mg/kg

Example entries begin here.
6aKC-23b (antisense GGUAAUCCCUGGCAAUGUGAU; all phosphorodiamidate morpholino (PMO), T or U not given here; Pip6aKC peptide conjugated); 39.84 ± 3,561 g
9b2-23b (antisense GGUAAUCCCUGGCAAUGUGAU; all phosphorodiamidate morpholino (PMO), T or U not given here; Pip9b2 peptide conjugated); 32,78 ± 4,285 g

As a next step, examine the substance that follows.
Incoming: Reported Weight, substance 6aKC-218 (antisense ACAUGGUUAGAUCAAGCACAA; all phosphorodiamidate morpholino (PMO), T or U not given here; Pip6aKC peptide conjugated) : ____
Outgoing: 39,02 ± 1,460 g

====

System: DM1 cells
EXPERIMENT NOTES: Cell proliferation assay (CellTiter 96 AQueous), cell growth inhibition after lipofection
Format: cell-based, human
OBSERVATION TYPE: TC50 (µM)
Only the number, expressed in µM, is required.

Example entries begin here.
9b2KC-218 (antisense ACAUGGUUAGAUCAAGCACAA; all phosphorodiamidate morpholino (PMO), T or U not given here; Pip9b2KC peptide conjugated); 0.08826
9b2KC-23b (antisense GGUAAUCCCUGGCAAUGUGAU; all phosphorodiamidate morpholino (PMO), T or U not given here; Pip9b2KC peptide conjugated); 0.256

As a next step, examine the substance that follows.
Incoming: Reported TC50, substance 9b2-23b (antisense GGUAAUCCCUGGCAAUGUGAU; all phosphorodiamidate morpholino (PMO), T or U not given here; Pip9b2 peptide conjugated) : ____
Outgoing: 0.088

====

Listing: Urea of selected substances
Test system: HSALR mice
EXPERIMENT NOTES: Serum biochemistry profile
Type: in vivo, mouse
EXPERIMENTAL SETUP: mouse, in vivo, iv, 9.2 mg/kg
Description: Mouse handling and experimental procedures followed the European law regarding laboratory animal care and experimentation (2003/65/C.E.) and were approved by Conselleria de Agricultura, […] (reference no. A1539961490857). We used homozygous transgenic HSA^LR (line 20 b) mice,[90] which were kindly provided by Dr Thornton (Rochester, NY) and were housed and bred in our animal facility. […]

Example entries begin here.
9b2-23b (antisense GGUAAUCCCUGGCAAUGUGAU; all phosphorodiamidate morpholino (PMO), T or U not given here; Pip9b2 peptide conjugated); 53 ± 2,345 mg/dL
9b2KC-23b (antisense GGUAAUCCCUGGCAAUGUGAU; all phosphorodiamidate morpholino (PMO), T or U not given here; Pip9b2KC peptide conjugated); 43,6 ± 6,580 mg/dL
9b2KC-218 (antisense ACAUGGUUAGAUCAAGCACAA; all phosphorodiamidate morpholino (PMO), T or U not given here; Pip9b2KC peptide conjugated); 41 ± 1,871 mg/dL

As a next step, examine the substance that follows.
Incoming: Reported Urea, substance 9b2-218 (antisense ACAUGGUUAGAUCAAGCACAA; all phosphorodiamidate morpholino (PMO), T or U not given here; Pip9b2 peptide conjugated) : ____
Outgoing: 44,40 ± 6,985 mg/dL

====

Listing: Bilirubin of selected substances
Test system: HSALR mice
EXPERIMENT NOTES: Serum biochemistry profile
Assay type: in vivo, mouse
EXPERIMENTAL SETUP: mouse, in vivo, iv, 9.2 mg/kg

Example entries begin here.
6aKC-218 (antisense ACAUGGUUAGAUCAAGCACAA; all phosphorodiamidate morpholino (PMO), T or U not given here; Pip6aKC peptide conjugated); 0,096 ± 0,03 mg/dL
9b2KC-23b (antisense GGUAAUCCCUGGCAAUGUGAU; all phosphorodiamidate morpholino (PMO), T or U not given here; Pip9b2KC peptide conjugated); 0,10 ± 0,045 mg/dL
6aKC-23b (antisense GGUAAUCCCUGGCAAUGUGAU; all phosphorodiamidate morpholino (PMO), T or U not given here; Pip6aKC peptide conjugated); 0,11 ± 0,083 mg/dL
9b2-218 (antisense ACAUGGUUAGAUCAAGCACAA; all phosphorodiamidate morpholino (PMO), T or U not given here; Pip9b2 peptide conjugated); 0,108 ± 0,044 mg/dL
9b2KC-218 (antisense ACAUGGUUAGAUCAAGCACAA; all phosphorodiamidate morpholino (PMO), T or U not given here; Pip9b2KC peptide conjugated); 0,112 ± 0,026 mg/dL

Incoming: Reported Bilirubin, substance 9b2-23b (antisense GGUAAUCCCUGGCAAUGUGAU; all phosphorodiamidate morpholino (PMO), T or U not given here; Pip9b2 peptide conjugated) : ____
Outgoing: 0,102 ± 0,029 mg/dL
